# Tested on: MALME-3M melanoma
# Protocol: NCI-60 one-dose screen, 48 h (100 = growth as untreated, 0 = no growth, -100 = all killed)
# Cond: 10 µM unless noted
# Description: Cells are grown in 96 well plates and exposed to the test compound for 48 hours. Compounds are tested at a single concentration, which is 10^-5 M for most compounds. The reported endpoint is percent growth (GI% or GIPRCNT), where numbers from 0 - 100% represent growth inhibition, and numbers from -100% - 0 represent cell death. For example, a value of 40 represents 60% growth inhibition. A value of 0 means no net growth occurred over the course of the experiment. […]
Compounds without any hit were thinned out: in the full panel of roughly 83,000, 20% have a hit.
Sorting guide: entries reporting growth beneath 60% go in the 1.0 pile, the rest go in the 0.0 pile.

Problem: Strictly below 60% in growth? Cc1cc(N2CCCC2)nc(NCc2cc(Nc3ccnc4cc(Cl)ccc34)ccc2F)n1
Solution: 1.0

Problem: Subsequent entry: CC(C)(C)CC(C)(C)Nc1c(-c2ccncc2)nc2cnccn12
Solution: 0.0

Problem: What about CC(=O)O[C@]1(C(C)=O)CCC2C3C[C@H](C)C4=CC(=O)CC[C@]4(C)C3CC[C@@]21C (stereo not given in full) ?
Solution: 0.0

Problem: Follow-up item: Cc1ccc2nc3ccccc3c(NCc3ccccc3)c2c1
Solution: 1.0

Problem: Please answer likewise for COc1cc(/C=C/C(=O)c2cccc(-n3cc(-c4ccccc4)[nH]c3=O)c2)ccc1O
Solution: 0.0

Problem: Same lookup for O=C(c1ccccc1)c1c(/C=C/c2ccc(Cl)cc2)nc2ccccc2c1/C=C/c1cccs1 , please.
Solution: 0.0

Problem: # repeat for N#C/C(=C\c1ccc(-c2ccccc2F)o1)c1nc(-c2ccco2)cs1
Solution: 0.0

Problem: And C[C@H]1[C@H]2[C@H]3CC[C@@H]4[C@@]5(C)C/C(=C/c6ccco6)C(=O)C(C)(C)[C@@H]5CC[C@@]4(C)[C@]3(C)CC[C@]23CO[C@]1(C)[C@@H](C(=O)/C=C\c1ccco1)C3 ?
Solution: 1.0

Problem: Would you kindly repeat that for Cc1ccc(NS(=O)(=O)c2ccc3c(c2)C(=O)CC(c2ccc(C(=O)C(C)C)cc2)N3)cc1C (stereo not given) ?
Solution: 1.0

Problem: Same lookup for O=c1[nH][n+](-c2ccc(Cl)cc2)no1 , please.
Solution: 0.0

Problem: Another compound to look at: NC[C@H](O)c1ccc(O)c(O)c1
Solution: 0.0

Problem: Now give it for N#Cc1c(N)nc2c(C#N)c(NC(=O)c3ccccc3)nn2c1-c1ccccc1 too.
Solution: 0.0

Problem: Quick one: O=C(COc1ccc(/C=C2\Oc3ccccc3C2=O)cc1)c1ccc(Cl)cc1
Solution: 0.0

Problem: // next record COC(=O)[C@H](CSC)N(C)C(=O)[C@@H]1CSSC[C@@H](NC(=O)c2nc3ccccc3cc2O)C(=O)NCC(=O)N1C
Solution: 0.0

Problem: Next: O=C(N/N=C/C=C/c1ccc([N+](=O)[O-])o1)c1cc2ccccc2cc1O
Solution: 1.0

Problem: Record: Cn1c(I)c(C#C[Si](C)(C)C)c(=O)n(C(=O)c2ccccc2)c1=O
Solution: 1.0

Problem: Same question, N#CCN1C(=O)C2C3=C(CCCC3)SC2N=C1CN1CCCC1 (stereo not given) this time
Solution: 0.0

Problem: Try the compound Cc1cc(NCc2cc(Nc3ccnc4cc(Cl)ccc34)ccc2F)nc(N2CCN(C)CC2)n1
Solution: 1.0

Problem: Next: O=C(Nc1ccc(Cl)cc1)Nc1ccc(Cl)c(C(F)(F)F)c1
Solution: 1.0

Problem: // repeat for CC1=C([Se]CC(OC(=O)CC[Se]c2ccccc2)C(=O)NCCCCCC(=O)OCc2ccccc2)C(=O)c2ccccc2C1=O (stereo not given) and report
Solution: 1.0

Problem: Thanks! And Cc1cc(C(=O)c2ccccc2)c(C)c2c1[nH]c1ccc(Cl)cc12 ?
Solution: 1.0

Problem: How about COC(=O)[C@]12CC[C@@H](C)[C@H](C)[C@@H]1C1=CC[C@@H]3[C@@]4(C)C(C=O)=C[C@@](C)(COS(C)(=O)=O)C4[C@H](O)C[C@@]3(C)[C@]1(C)CC2 (stereo not given in full) ?
Solution: 1.0

Problem: Now consider CCN1C(=O)N(CC)C2Nn3c(s/c(=C\c4ccc(Cl)cc4Cl)c3=O)=NC21 (stereo not given) and answer again.
Solution: 0.0

Problem: # iterate: COc1cccc(-c2nn(-c3ccccc3)cc2-c2ccnc(NCCCNC(=O)c3ccccc3)c2)c1
Solution: 1.0

Problem: Could you do the same for COc1ccc2[nH]c(O)c(/C=c3/cc4c(c(-c5ccc(F)c(OC)c5)n3)=Nc3ccccc3-4)c2c1 , please?
Solution: 1.0

Problem: Try the compound CN(C)c1ccc(-c2cc(-c3ccc(Nc4nc(Nc5ccc(Cl)cc5)nc(Nc5ccc(Cl)cc5)n4)cc3)no2)cc1
Solution: 1.0

Problem: And for CCCCCCCCn1ccc2cc(NC(=O)Cn3cc(CN4CCCC4)nn3)ccc21 ?
Solution: 1.0

Problem: Record: COCCN(C(=O)c1ccc(F)cc1F)c1c(N)n(Cc2ccccc2)c(=O)[nH]c1=O
Solution: 0.0

Problem: Similarly, COc1cccc(-c2nn(-c3ccccc3)cc2-c2ccnc(NCCCNC(=O)c3cccc(C(F)(F)F)c3)c2)c1 ?
Solution: 1.0

Problem: Another compound to check: C[n+]1cccc(CC(=O)NO)c1
Solution: 0.0

---

# Test system: NCI/ADR-RES ovarian
# Protocol: NCI-60 one-dose screen, 48 h
# Cond: 10 µM unless noted
About 83,000 compounds went through this panel and 20% of them were active in at least one assay; those are over-represented in the sample as a whole. Activity calls are given as the source filed them. How the source made its calls: active means growth percent below 10; inactive means the rest.
The categories you may choose from are active, inactive

Problem: What classification did C=CCNc1nc(NN2C(=O)c3cccc4cccc(c34)C2=O)nc(-n2cnc3ccccc32)n1 end up with in this test?
Solution: inactive

Problem: And what about the compound C=CCSc1nc2ccccc2cc1/C=N/O ?
Solution: inactive

Problem: Now the compound O=C1N=c2cc3c(cc2=C/C1=C/c1sc(=S)n(CCc2ccc(O)cc2)c1O)OCCO3
Solution: inactive

Problem: Follow-up item: O=C(N=c1oc2ccccc2cc1-c1cc2ccccc2[nH]1)c1ccc(Cl)cc1
Solution: inactive

Problem: And for CC1(C)CC(=O)C2=C(C1)N(c1ccc(OC(F)(F)F)cc1)C(N)=C(C#N)C2c1ccc(Cl)cc1 (stereo not drawn) ?
Solution: inactive

Problem: Query COc1cccc(-c2nc3sccn3c2-c2ccnc(NCCNS(=O)(=O)c3cccc(F)c3)c2)c1 next
Solution: inactive

Problem: Field entry: N[C@@H](CCCCNCC(=O)O)C(=O)O
Solution: inactive

Problem: Queued: O=c1c2c3c(sc2n2c(-c4cc(-c5ccccc5)nn4-c4ccccc4)nnc2n1Cc1ccccc1)CCCC3
Solution: inactive

Problem: Another compound: CC/C=C/C/C=C/C/C=C/C/C=C/C/C=C/C/C=C/CCC(=O)Nc1ccn([C@@H]2O[C@H](CO)[C@@H](O)C2(F)F)c(=O)n1
Solution: inactive

Problem: Now this one: O=C1/C(=C2/C=Nc3ccccc32)N(O)c2ccccc21
Solution: inactive

Problem: Cc1cc(C(=O)c2ccccc2)c(C)c2c1[nH]c1ccc(Cl)cc12 ?
Solution: active

Problem: Do the same for C[C@H]1[C@H]2[C@H]3CC[C@@H]4[C@@]5(C)C/C(=C/c6ccco6)C(=O)C(C)(C)[C@@H]5CC[C@@]4(C)[C@]3(C)CC[C@]23CO[C@]1(C)[C@@H](C(=O)/C=C\c1ccco1)C3 please
Solution: inactive

Problem: Field entry: COC(=O)[C@]12CC[C@@H](C)[C@H](C)[C@@H]1C1=CC[C@@H]3[C@@]4(C)C(C=O)=C[C@@](C)(COS(C)(=O)=O)C4[C@H](O)C[C@@]3(C)[C@]1(C)CC2 (stereo partly drawn)
Solution: active

Problem: CCCCCCCCCCN(CCCCCCCCCC)CC(=O)c1ccc2cc(Br)c3ccccc3c2c1 , same question.
Solution: inactive

Problem: Next entry: COc1cccc(-c2nn(-c3ccccc3)cc2-c2ccnc(NCCCNC(=O)Nc3ccc(Cl)c(Cl)c3)c2)c1
Solution: active

Problem: Item: Cc1ccc(S(=O)(=O)n2cc(CNc3ccc(N4CCOCC4=O)cc3)c3ccccc32)cc1
Solution: inactive

Problem: Same question, CCOC(=O)c1ccc(N2NC(=O)/C(=C/c3ccc([N+](=O)[O-])o3)C2=O)cc1 this time
Solution: inactive

Problem: Let us now turn to COC(=O)[C@]12CC[C@@H](C)[C@H](C)[C@@H]1C1=CC[C@@H]3[C@@]4(C)C(C=O)=C[C@@](C)(COC(=O)c5ccco5)C4=CC[C@@]3(C)[C@]1(C)CC2
Solution: inactive

Problem: And then O=C(Nc1ccc(-n2cc(-c3ccncc3)c(-c3ccc(Cl)c(O)c3)n2)cc1)N1CCOCC1 , what is it?
Solution: inactive

Problem: For CCN(CC)CCN1C(=O)c2c(c(C)c3c(oc4cc(O)ccc43)c2C)C1=O then?
Solution: inactive

Problem: Entry COC(=O)c1c2c(c(C)[n+]([O-])c1C)C(=O)C(NCc1ccc(F)cc1)=CC2=O please
Solution: inactive

Problem: Entry to check: Nc1ccc2c(c1)c(N)nn2C(=O)Nc1ccc(Cc2ccccc2)cc1
Solution: inactive

Problem: Now consider COC(=O)[C@H](CSC)N(C)C(=O)[C@@H]1CSSC[C@@H](NC(=O)c2nc3ccccc3cc2O)C(=O)NCC(=O)N1C .
Solution: inactive
